- protocol.notes: chemical genetic growth profiling, strain panel (AID 1159580);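 also: tested at 20 µM; growth read once vehicle control cultures reached saturation at 30 °C; lower values mean less growth of the strain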
- setup.conditions: S. cerevisiae deletion strains, growth OD, locus YIL066C, strain RNR3
Among all 5,500 compounds or so, about 2,000 (36%) were called active. Inconclusive results (about 18%) are left out. Rule as the data show it: active = normalized growth mostly below about 0.91 (no sharp cut-off); inconclusive = no clear call, values can overlap the other calls; inactive = mostly above about 0.92. This is one part of the list.
API: response.call in active, inactive

Exercise: Assay result, entry CCOC(=O)c1c(C)cc(O)c(C=O)c1O — outcome?
Key: active

Exercise: Dear colleague, could you share the recorded outcome for COc1ccc2cc([C@H](C)C(=O)O)ccc2c1 when you have a moment?
Key: inactive

Exercise: Hey, what did the test say about CCC(=O)O[C@H]1CCC2C3CCC4=CC(=O)CC[C@]4(C)C3CC[C@@]21C (stereo partly drawn) ?
Key: inactive

The measured values listed here are drawn from PubChem BioAssay AID1159580.
